In this section, each of the compounds is paired with its reported GI50.
- Tested on: HT-29
- EXPERIMENTAL PROTOCOL: Growth inhibition of HT29 cells after 48 hrs
- Assay type: functional
- SETTINGS: Homo sapiens, HT-29, 48 h

Here's what some known entries look like.
COCCCCc1cccc(NC(=O)NCCCl)c1
1 µM
CCCCCCc1cccc(NC(=O)NCCCl)c1
1 µM
CCCCCCCc1cccc(NC(=O)NCCCl)c1
1 µM
COCCc1cccc(NC(=O)NCCCl)c1
4 µM
COCCCc1cccc(NC(=O)NCCCl)c1
4 µM

Entry `COc1cccc(NC(=O)NCCCl)c1` : reported GI50 = ?
> 10 µM

And then `COCc1cccc(NC(=O)NCCCl)c1` , what is it?
> 10 µM

###

- System: MCF7
- EXPERIMENTAL PROTOCOL: Growth inhibition of MCF7 cells after 48 hrs
- Assay type: functional
- SETTINGS: Homo sapiens, MCF7, 48 h
VALUE TYPE: GI50

Example cases with answers are listed next.
COCc1cccc(NC(=O)NCCCl)c1
> 10 µM
COCCCCc1cccc(NC(=O)NCCCl)c1
3 µM
COCCc1cccc(NC(=O)NCCCl)c1
14 µM

Give GI50 (MCF7) of the following compound: `CCCCCCc1cccc(NC(=O)NCCCl)c1`
1 µM

How about `CCCCCc1cccc(NC(=O)NCCCl)c1` ?
1 µM

Same question, `COCCCc1cccc(NC(=O)NCCCl)c1` this time
> 10 µM

Now the compound `COc1cccc(NC(=O)NCCCl)c1`
> 10 µM

Proceed to `COCCCCCc1cccc(NC(=O)NCCCl)c1`
1 µM

Thanks! And `CCCCCCCc1cccc(NC(=O)NCCCl)c1` ?
2 µM

Values were extracted from ChEMBL document CHEMBL1142887.
